From: patent US20250230147A1

TARGET_SYSTEM: Cbl-b (Homo sapiens (Human))
Sequence (Q13191 40-426): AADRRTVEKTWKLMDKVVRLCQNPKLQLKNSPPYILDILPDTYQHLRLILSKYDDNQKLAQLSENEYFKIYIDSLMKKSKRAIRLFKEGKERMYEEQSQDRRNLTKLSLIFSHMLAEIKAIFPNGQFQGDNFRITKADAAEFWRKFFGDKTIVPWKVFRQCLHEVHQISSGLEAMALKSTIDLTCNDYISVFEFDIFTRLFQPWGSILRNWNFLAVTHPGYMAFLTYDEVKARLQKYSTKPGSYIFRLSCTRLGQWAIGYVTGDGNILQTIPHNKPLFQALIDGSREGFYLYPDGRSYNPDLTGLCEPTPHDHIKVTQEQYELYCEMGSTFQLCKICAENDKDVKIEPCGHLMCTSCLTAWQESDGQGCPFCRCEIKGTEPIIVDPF
TEST_DESCRIPTION: Cbl-b LCK Ub TR-FRET assay (Cbl-b Lck HTRF)
Type: biochemical
pIC50: −log10 of the molar value.
METRIC_NAME: pIC50

[[record]]
compound = "CC[C@@H]1CCC[C@H](c2cc3c(c(C(F)(F)F)c2)CN(c2cccc(C4(Cc5nncn5C)CC(F)(F)C4)c2)C3=O)N1 [Compound 274]"
recorded_measurement = 6.85

[[record]]
compound = "C[C@H](c1cc2c(c(C(F)(F)F)c1)CN(c1cccc(C3([C@@H](F)c4nncn4C)COC3)c1)C2=O)N1CC(C)(F)C1 [Compound 109]"
recorded_measurement = 7.36

[[record]]
compound = "Cn1cnnc1CC1(c2cc(NC3CCCC3)nc(N3Cc4c(cccc4C(F)(F)F)C3=O)c2)CCC1 [Compound 296]"
recorded_measurement = 6.36

[[record]]
compound = "CC(C)NCc1cc2c(c(C(F)(F)F)c1)CN(c1cccc(C3([C@@H](F)c4nncn4C)CC(F)(F)C3)c1)C2=O [Compound 417]"
recorded_measurement = 7.24

[[record]]
compound = "Cn1cnnc1C[C@]1(c2cccc(N3Cc4c(cc(CNC5(C)CCC5)cc4C(F)(F)F)C3=O)c2)C[C@H](C#N)C1 [Compound 467]"
recorded_measurement = 7.92

[[record]]
compound = "CO[C@@H]1CCN(Cc2cc3c(c(C(F)(F)F)c2)CN(c2cccc(C4([C@@H](F)c5nncn5C)COC4)c2)C3=O)C1 [Compound 47]"
recorded_measurement = 7.00

[[record]]
compound = "Cn1cnnc1CC1(c2cc(OC3CCCC3)cc(N3Cc4c(cc(CNC5(C)CCC5)cc4C(F)(F)F)C3=O)c2)COC1 [Compound 479]"
recorded_measurement = 6.74

